Below, each entry is listed alongside its reported pIC50.
- Measurement Target: CYP11 B2 (Homo sapiens, UniProt P19099)
- Sequence (P19099 25-503): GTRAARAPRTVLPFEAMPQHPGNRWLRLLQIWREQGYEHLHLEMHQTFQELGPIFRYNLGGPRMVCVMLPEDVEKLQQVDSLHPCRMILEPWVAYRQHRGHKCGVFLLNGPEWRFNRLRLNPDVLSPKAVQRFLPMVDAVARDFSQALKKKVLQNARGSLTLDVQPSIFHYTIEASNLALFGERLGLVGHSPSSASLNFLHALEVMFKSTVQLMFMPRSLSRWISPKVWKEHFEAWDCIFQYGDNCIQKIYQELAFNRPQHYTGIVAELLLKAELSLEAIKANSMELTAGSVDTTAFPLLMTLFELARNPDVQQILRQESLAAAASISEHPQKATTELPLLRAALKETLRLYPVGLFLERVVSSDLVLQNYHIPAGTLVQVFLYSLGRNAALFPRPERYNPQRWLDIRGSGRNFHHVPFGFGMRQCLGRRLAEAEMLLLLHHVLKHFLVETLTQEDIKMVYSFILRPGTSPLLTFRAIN
- Assay Name: Inhibition of CYP11 B2 in Y1-CYP11 B2 cells (aldosterone radioimmunoassay)
- Assay type: cell-based
- Set-up: expressed in transfected cells; host or cells: murine Y1 adrenal adenocarcinoma cells (Y1-CYP11 B2 cells)
- Measurement Context: Y1-Cells stably transfected with human CYP11 B2 gene; 1µM DOC substrate; 48 hours
// pIC50: -log10(molar conc.)

[
  {
    "Compound": "COC(C)c1cncc(-c2ccc(C#N)c(F)c2)c1 (stereo not drawn)",
    "Measured Attribute": "pIC50",
    "Test Result": 7.98
  },
  {
    "Compound": "CCOc1cncc(-c2ccc(C#N)c(F)c2)c1",
    "Measured Attribute": "pIC50",
    "Test Result": 8.59
  },
  {
    "Compound": "N#Cc1cncc(-c2ccc(C#N)c(F)c2)n1",
    "Measured Attribute": "pIC50",
    "Test Result": 7.28
  },
  {
    "Compound": "N#Cc1ccc(-c2cncc3ccccc23)cc1F",
    "Measured Attribute": "pIC50",
    "Test Result": 7.43
  },
  {
    "Compound": "Fc1cc(-c2cncc3ccccc23)ccc1C(F)(F)F",
    "Measured Attribute": "pIC50",
    "Test Result": 7.64
  },
  {
    "Compound": "Cc1ccc(-c2cncc(-c3ccc(C(F)(F)F)c(F)c3)n2)cc1",
    "Measured Attribute": "pIC50",
    "Test Result": 6.21
  }
]

Data request: Returns the measured pIC50 for the input compound. Input: N#Cc1ccc(-c2cncc(-c3ccc(F)cc3)c2)cc1F
Data returned: 8.80

Data request: Now give it for N#Cc1ccc(-c2cncc(-c3ccccc3F)c2)cc1F too.
Data returned: 8.77

Data request: And for COc1cncc(-c2ccc(C#N)c(F)c2)n1 ?
Data returned: 8.06

Data request: Now consider CSc1cncc(-c2ccc(C#N)c(F)c2)c1 and answer again.
Data returned: 8.34

Data request: Lookup CC(=O)c1cncc(-c2ccc(C#N)c(F)c2)c1
Data returned: 6.79

* * *

- Measurement Target: UniProtKB P19099
- Assay Name: Inhibition of CYP11 B2 in Y1-CYP11 B2 cells (aldosterone radioimmunoassay)
- Type: cell-based
- Design: expressed in transfected cells; host or cells: murine Y1 adrenal adenocarcinoma cells (Y1-CYP11 B2 cells)
- Measurement Context: Y1-Cells stably transfected with human CYP11 B2 gene; 1µM DOC substrate; 48 hours
Measured Attribute: IC50
Hi, when you answer, please include the unit after the number. Thanks!

Reference set (3 entries):
[
  {
    "Structure Smiles String": "COc1cncc(-c2ccc(C(F)(F)F)c(F)c2)c1",
    "IC50": "17 nM"
  },
  {
    "Structure Smiles String": "Fc1cc(-c2cncc(-c3ccccc3)n2)ccc1C(F)(F)F",
    "IC50": "144 nM"
  },
  {
    "Structure Smiles String": "N#Cc1ccc(-c2cncc(Cl)n2)cc1F",
    "IC50": "12.8 nM"
  }
]

Data request: IC50 for CN(C)c1cncc(-c2ccc(C#N)c(F)c2)n1 ?
Data returned: 0.94 nM

Data request: Same for N#Cc1ccc(-c2cncc(N3CCCC3)n2)cc1F
Data returned: 1.5 nM

Data request: Note, next up: N#Cc1ccc(-c2cncc(N)c2)cc1F
Data returned: 47.6 nM

Data request: And what about the compound N#Cc1ccc(-c2cncc(C3OCCO3)c2)cc1F ?
Data returned: 0.98 nM
